- Assay: Primary qHTS for delayed death inhibitors of the malarial parasite plastid, 96 hour incubation; note: % is set by controls: 0 for no effect and ±100 for the full control effect
- Measurement Conditions: P. falciparum luciferase reporter growth; series mostly up to 28.7 µM
Among all 320,000 compounds or so, about 22,000 (6.9%) were called active. About 27% were inconclusive and are not listed. Calls come from the whole dose curve; as a rule, active = well fitted inhibition curve with a large enough effect; inconclusive = small, poorly fitted or top-dose-only effect, or another doubt; inactive = no such curve, though single readings can be large or run the other way. The sample holds actives, similar compounds and a random draw of the others, so the mix is not that of the screen.
// one of label 1 = active, label 0 = inactive, no free text

                                   molecule    group
0  CCCn1nc(C(=O)N2CCCc3ccccc32)c2ccccc2c1=O  label 0
1  O=C(O)Cc1sc(-c2ccc(C(=O)O)cc2)nc1-c1ccccc1  label 0
2         CC(C)(C)N(Cc1ccccc1)C(=O)c1ccncc1  label 0
3  CCCN(CC(=O)Nc1ccccc1OC)C(=O)CCC(=O)c1ccc(F)cc1  label 0
4  COc1ccc(S(=O)(=O)N2CCOCC2)cc1C(=O)Nc1nc2ccccc2s1  label 0
5      COc1ccc2[nH]c(C(=O)Nc3ccccc3Cl)cc2c1  label 0

// param item: CC(C)(C)NC(=O)NC(=O)COC(=O)C1c2ccccc2Oc2ccccc21 ; yields the recorded call label 0
